Assignment: determine reported IC50 for the given molecules.
# assayed.target: NAD-dependent protein deacetylase sirtuin-2 (Homo sapiens)
# Sequence (Q8IXJ6 whole entry): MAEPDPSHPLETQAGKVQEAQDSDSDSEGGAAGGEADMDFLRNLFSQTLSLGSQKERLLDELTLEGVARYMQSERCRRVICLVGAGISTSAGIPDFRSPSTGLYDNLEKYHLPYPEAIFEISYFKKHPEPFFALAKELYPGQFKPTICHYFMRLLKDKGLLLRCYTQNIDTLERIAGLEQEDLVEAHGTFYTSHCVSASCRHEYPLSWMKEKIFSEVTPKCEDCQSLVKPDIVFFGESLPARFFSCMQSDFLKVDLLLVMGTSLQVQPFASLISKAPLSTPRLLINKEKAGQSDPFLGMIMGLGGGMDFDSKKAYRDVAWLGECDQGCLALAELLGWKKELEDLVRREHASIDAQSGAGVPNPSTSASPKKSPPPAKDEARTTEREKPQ
# protocol.summary: Inhibition of human recombinant SIRT2 using fluorescent peptide substrate by fluorescent assay

**Query** Given the entry N#C/C(=C\c1ccc(-c2cccc(C(F)(F)F)c2)o1)C(=O)Nc1cccc2cccnc12 , what IC50 was observed with NAD-dependent protein deacetylase sirtuin-2 (Homo sapiens)?
**Result** > 50 µM

**Query** Given the entry O=C(c1ccc(Cl)cc1)N1CCN(c2ccc([N+](=O)[O-])c3ncccc23)CC1 , what IC50 was observed with NAD-dependent protein deacetylase sirtuin-2 (Homo sapiens)?
**Result** 35 µM

**Query** Given the entry N#C/C(=C\c1ccc(-c2ccccc2Cl)o1)C(=O)Nc1cccc2cccnc12 , what IC50 was observed with NAD-dependent protein deacetylase sirtuin-2 (Homo sapiens)?
**Result** > 50 µM

**Query** Given the entry N#C/C(=C\c1ccc(-c2cccc(C(F)(F)F)c2)o1)C(=O)Nc1cccc2ncccc12 , what IC50 was observed with NAD-dependent protein deacetylase sirtuin-2 (Homo sapiens)?
**Result** 6 µM

Lab note: each molecule below needs its IC50 filled in.
1. N#C/C(=C\c1ccc(-c2cccc(Cl)c2Cl)o1)C(=O)Nc1cccc2ncccc12
2. N#C/C(=C\c1ccc(-c2cccc(Cl)c2Cl)o1)C(=O)Nc1cccc2cccnc12
3. N#C/C(=C\c1ccc(-c2ccccc2Cl)o1)C(=O)Nc1cccc2ncccc12
4. N#C/C(=C\c1ccc(-c2cc(Cl)ccc2Cl)o1)C(=O)Nc1cccc2cccnc12

**Result**
["> 10 µM", "> 50 µM", "5.5 µM", "> 50 µM"]
